Reference for the values: PubChem BioAssay

Target: Short transient receptor potential channel 4 (Mus musculus)
Assay: calcium flux activators in TRPC4/5HT1a cells, counter-screen for TRPC4 activator project, cell-based, second counter screen, HEK293 TRPC4/5HT1a, Fluo-4 (AID 434977)
Settings: Fluo-4 calcium flux, at 10 µM
Calls of active or inactive are those of the source.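 The calls were made as follows: active = calcium signal rise above buffer-control mean plus 5 SD in both duplicates, and also a hit in the primary screen; inactive = the rest.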
Valid outcomes are listed here; reply with one: active, inactive

Task: Name the outcome recorded for COc1ccc(C(=O)Nc2ccccc2N2CCN(C(=O)c3ccccc3)CC2)cc1Br in the assay.
Result: inactive

Task: Moving on to the next compound: CCCCN(C)CCNC(=O)c1c[nH]c2ccc(S(=O)(=O)N(CC)CC)cc2c1=O
Result: inactive

Task: Moving on to the next compound: Fc1ccc(NC(=S)NCCc2ccccn2)cc1
Result: active

Task: Moving on to the next compound: CC(=O)Cn1ncc(N2CCOCC2)cc1=O
Result: inactive

Task: Moving on to the next compound: CCC1CCCCN1CCN1C(=O)C2C(C(=O)Nc3ccc(OC)cc3)C3C=CC2(O3)C1C(=O)NC1CCCCC1 (stereo not given)
Result: inactive

---

Tested on: TRPC4 (transient receptor potential cation channel C4 beta), mouse
Experiment: potentiation of DAMGO EC20 TRPC4 response – cell-based, second round, Fluo-4, HEK293 TRPC4beta/mu-opioid, 1 µM, confirmation (AID 2554)
Conditions: DAMGO EC20, Fluo-4 calcium flux, at 1 µM
The source made the active and inactive calls.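 How the source made its calls: active means primary screen hit whose fluorescence ratio, in both repeats, exceeds the weak agonist control mean by 3 SD; inactive means the rest.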
Valid outcomes are listed here; reply with one: 1 (active), -1 (inactive)

Previously resolved entries follow.
INSERT INTO results (molecule, classname) VALUES
  ('CC1CC(C)CN(CCCNC(=O)C2CCCN(c3ncnc4c3nc3n4CCCCC3)C2)C1 (configuration not stated)', 1),
  ('Cc1ccc(N2CCN(C(=O)c3ccccc3F)CC2)c(C)c1', -1),
  ('Cc1cc(-c2sccc2C)nc(-n2cccc2)n1', -1),
  ('CC(C)(C)NCc1cc(Cl)ccc1OCc1cccs1', -1),
  ('O=C(Nc1ccc([N+](=O)[O-])cn1)C1CCCCC1', -1),
  ('Cc1ccc2[nH]c(C)c(CCN(Cc3cccnc3)C(=S)NC(C)(C)C)c2c1', -1),
  ('Cc1ccc(Cn2c(=N)c(C(=O)NC3CCCCC3)cc3c(=O)n4ccccc4nc32)cc1', -1),
  ('Fc1ccc(CN2CCC(Cc3ccccc3)CC2)cc1F', -1);

Now look at this entry.
Task: Name the outcome recorded for CCCC(=O)N/C(N)=N/c1nc(C)c2ccccc2n1 in the assay.
Result: 1

---

Tested on: TRPC4 (transient receptor potential cation channel C4 beta), mouse
Assay: potentiation of DAMGO EC20 TRPC4 response – cell-based, second round, Fluo-4, HEK293 TRPC4beta/mu-opioid, 1 µM, confirmation (AID 2554)
Settings: DAMGO EC20, Fluo-4 calcium flux, at 1 µM
Activity calls are given as the source filed them.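 How the source made its calls: active means primary screen hit whose fluorescence ratio, in both repeats, exceeds the weak agonist control mean by 3 SD; inactive means the rest.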
Valid outcomes are listed here; reply with one: 1 for active, -1 for inactive

Task: Name the outcome recorded for CC(C)(C)c1ccc(-c2nnc3sc(-c4ccccn4)nn23)cc1 in the assay.
Result: -1

Task: Moving on to the next compound: COc1ccc(Nc2c3c(nc4ccccc24)CCC3)cc1
Result: -1

Task: Moving on to the next compound: CN(C)CCCOC(=O)c1ccc(Cl)cc1Cl
Result: 1

Task: Moving on to the next compound: CCC(=O)Nc1cc(ON=C(C)C)cc([N+](=O)[O-])c1
Result: -1

Task: Moving on to the next compound: Cc1ccc(C[n+]2cc(-c3ccc(Cl)cc3)n3c2CCC3)cc1
Result: -1
